Assay metric: melting point

These solved cases illustrate the format of a correct answer.
| Molecule | melting point |
| --- | --- |
| CCS(=O)(=O)c1cnc(-c2ncccn2)nc1-c1nc2cc(S(=O)(=O)C(F)(F)F)ccc2o1 | 118 to 124 °C |
| CCS(=O)(=O)c1cnc(-n2nccc2N)nc1-c1nc2cc(C(F)(F)F)cnc2n1C | 247 to 249 °C |
| CCS(=O)(=O)c1cnc(-c2ncccn2)nc1-c1nc2cc(SC(F)(F)F)ccc2o1 | 223 to 225 °C |
| CCS(=O)(=O)c1cnc(NN)nc1-c1nc2cc(C(F)(F)F)cnc2n1C | 227 to 229 °C |

// field: melting point; key: CCS(=O)(=O)c1cnc(-c2ncccn2)nc1-c1nc2cc([S+]([O-])C(F)(F)F)ccc2o1 (centres unmarked) ; value = 192 to 195 °C
